Where these numbers come from: patent US20250171534A1

# Test system: T1, human LILRB2 expressed on cells (human, UniProt Q8N423 22-597)
# T1 construct: In 293T cells it was expressed from pCMV3-LILRB2-GFP; also called CHO-LILRB2; Jurkat-LILRB2
# T1 sequence (Q8N423 other isoform, or with tags, fused parts or gaps limits assumed): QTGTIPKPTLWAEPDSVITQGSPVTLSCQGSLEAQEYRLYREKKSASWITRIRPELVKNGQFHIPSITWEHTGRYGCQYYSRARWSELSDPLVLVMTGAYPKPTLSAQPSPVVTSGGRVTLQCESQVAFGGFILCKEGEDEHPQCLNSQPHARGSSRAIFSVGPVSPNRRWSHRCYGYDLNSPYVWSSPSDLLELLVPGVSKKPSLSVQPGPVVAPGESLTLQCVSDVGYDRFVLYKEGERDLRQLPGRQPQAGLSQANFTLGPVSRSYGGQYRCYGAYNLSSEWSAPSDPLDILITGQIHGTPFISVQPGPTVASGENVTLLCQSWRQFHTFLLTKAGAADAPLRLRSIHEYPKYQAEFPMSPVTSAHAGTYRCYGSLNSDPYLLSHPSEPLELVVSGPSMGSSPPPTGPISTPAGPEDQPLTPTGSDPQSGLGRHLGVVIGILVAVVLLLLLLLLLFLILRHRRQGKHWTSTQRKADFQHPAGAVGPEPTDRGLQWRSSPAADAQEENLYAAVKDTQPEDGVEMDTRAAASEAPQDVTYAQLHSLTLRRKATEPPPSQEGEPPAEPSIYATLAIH
# Test name: flow cytometry, CHO-LILRB2 cells
Measure name: gMFI (max)

- Binder: "#28 (antibody, human IgG1, V domains shown, also called D2M002-028) VH: EVQLQQSGAELMKPGASVKISCKATGYTFSSYWIEWVKQRPGHGLEWIGEILPGSGSTNYNEKFKGKATFTADTSSNTAYMQLSSLTSEDSAVYYCARSGAGGYDSGAFAYWGQGTLVTVSS VL: DIVMTQSPASLAVSLGQRATISCRASESVDTYGNSFMHWYQQKPGQPPKLLIYRTSNLESGIPARFSGSGSRTDFTLTINPVEADDVATYYCQQSNEDPWTFGGGTKLEIK"
  Numeric value: 26600
- Binder: "D2M002-002 (antibody, V domains shown, Hit from immunised mice; also called clone #2; anti-LILRB1/2 clone #2) VH: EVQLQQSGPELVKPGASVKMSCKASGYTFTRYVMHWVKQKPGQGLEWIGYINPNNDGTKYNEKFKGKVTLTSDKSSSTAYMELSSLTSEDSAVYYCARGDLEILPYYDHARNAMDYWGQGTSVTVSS VL: DVQMIQSPASLSASVGETVTITCRASENIYSYLAWYQQKQGKSPQLLVYNAKTLAEGVPSRFSGSGSGTQFSLKINSLQPEDFGSYYCQHFWSTPPTFGGGTKLEIK"
  Numeric value: 21900
- Binder: "#3 (antibody, human IgG1, V domains shown, also called D2M002-003) VH: QIQLLQSGPELVKPGASVKMSCKASGYTFTRYVMYWVKQKPGQGLEWIGYINPDNDGTKYNEKFKGKATLTSDKSSSTAYMELSSLTSEDSAVYYCARGDLELLPYYDYVRNAMDYWGQGTSVTVSS VL: DIQMTQSPASLSASVGETVTITCRASGNIHNYLAWYQQKQGKSPQLLVYNAKTLADGVPSRFSGSGSGTQYSLKINSLQPEDFGSYYCQHFWSTPPTFGGGTKLEIK"
  Numeric value: 18500
- Binder: "#21 (antibody, human IgG1, V domains shown, also called D2M002-021) VH: QVQLQQSGAELMKPGASVKISCKATGSTFSSYWIEWVKQRPGHGLEWIGEILPGSGSTNYNEKFKGKATFTADTSSNTAYMQLSSLTSEDSAVYYCARSGAGGYDSGAFAYWGQGTLVTVSA VL: DIVLTQSPASLAVSLGQRATISCRASESVDTYGNSFMHWYQQKPGQPPKLLIYRTSNLESGIPARFSGSGSRTDFTLTINPVEADDVATYYCQQSNEDPWTFGGGTKLEIK"
  Numeric value: 25600
